- EXPERIMENTAL SYSTEM: VHR (Homo sapiens, UniProt P51452)
- Sequence (P51452 whole entry): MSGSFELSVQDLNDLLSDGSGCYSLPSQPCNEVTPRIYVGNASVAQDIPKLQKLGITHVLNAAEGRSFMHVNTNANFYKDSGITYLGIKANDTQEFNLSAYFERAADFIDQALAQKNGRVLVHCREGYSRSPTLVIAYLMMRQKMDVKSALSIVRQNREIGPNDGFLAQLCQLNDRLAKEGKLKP
READOUT: Kd

| MOL SMILES | RESULT |
| --- | --- |
| O=P(O)(O)C(F)(F)c1cccc(-c2cccc(-c3cscn3)c2)c1 | 7.6 µM |

---

- EXPERIMENTAL SYSTEM: VHR (Homo sapiens)
READOUT: IC50 (µM)

| MOL SMILES | EXPERIMENTAL SYSTEM | UNIT OF MEASUREMENT | NUMERIC RESULT |
| --- | --- | --- | --- |
| O=P(O)(O)C(F)(F)c1cccc(-c2cccc(-c3cscn3)c2)c1 | VHR (Homo sapiens) | µM | 4.1 |
